Recorded Relative Amylase Enzyme Activity, one value per entry.
Test system: amylase
Assay: Amylase activity retention in detergent use solution (4000 ppm, 5 GPG water; ethylidene substrate EPS, HEPES buffer pH 8.0)
Assay type: biochemical
Conditions: base formula, phosphonate 0.3 wt-%, use solution at 120° F., time 0 min
// return numeric value only (unit: %, not printed)

> print(dat)
                                   molecule                  measurement.kind  measured.value
1  O=C(O)CCC(CC(=O)O)(C(=O)O)P(=O)(O)O (stereo not shown)  Relative Amylase Enzyme Activity          100.00
2         O=P(O)(O)CN(CP(=O)(O)O)CP(=O)(O)O  Relative Amylase Enzyme Activity          100.00

Asked: Relative Amylase Enzyme Activity for NCP(=O)(O)O ?
Given back: 82.13

Asked: Cool, now CC(O)(P(=O)(O)O)P(=O)(O)O
Given back: 100.00

These data points were gathered from patent US11807835B2.
